In this section we review reported neutralization IC80 values for a set of binders.
target: HIV-1 Env of pseudovirus 0260.v5.c36 (HIV-1); assay: cell-based or functional assay
Respond with the bare value in µg/mL.

| BINDER | neutralization IC80 / µg/mL |
| --- | --- |
| MS-79 (antibody, V domains shown) VH: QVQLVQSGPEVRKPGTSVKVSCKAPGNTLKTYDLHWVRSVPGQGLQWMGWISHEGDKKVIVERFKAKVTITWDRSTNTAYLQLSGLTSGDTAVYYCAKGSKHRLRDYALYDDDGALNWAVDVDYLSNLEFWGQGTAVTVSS VL: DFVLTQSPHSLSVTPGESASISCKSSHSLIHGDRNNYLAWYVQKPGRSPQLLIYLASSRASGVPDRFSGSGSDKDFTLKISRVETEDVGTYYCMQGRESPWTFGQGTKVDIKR | 0.159 |
| MS-88 (antibody, V domains shown) VH: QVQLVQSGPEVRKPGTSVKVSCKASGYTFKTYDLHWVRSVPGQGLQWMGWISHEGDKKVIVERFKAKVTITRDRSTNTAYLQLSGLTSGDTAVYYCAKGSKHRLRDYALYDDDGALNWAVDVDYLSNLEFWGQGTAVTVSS VL: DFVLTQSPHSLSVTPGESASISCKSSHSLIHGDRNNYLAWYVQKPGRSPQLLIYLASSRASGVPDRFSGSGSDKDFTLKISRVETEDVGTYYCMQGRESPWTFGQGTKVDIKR | 1.51 |
| MS-72 (antibody, V domains shown) VH: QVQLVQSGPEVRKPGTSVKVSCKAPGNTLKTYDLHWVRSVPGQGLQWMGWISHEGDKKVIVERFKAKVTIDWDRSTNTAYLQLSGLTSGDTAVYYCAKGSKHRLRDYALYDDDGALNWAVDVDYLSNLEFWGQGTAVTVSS VL: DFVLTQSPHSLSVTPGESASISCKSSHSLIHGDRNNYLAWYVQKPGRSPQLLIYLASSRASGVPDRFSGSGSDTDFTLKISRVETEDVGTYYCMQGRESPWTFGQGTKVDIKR | 0.114 |
| MS-83 (antibody, V domains shown) VH: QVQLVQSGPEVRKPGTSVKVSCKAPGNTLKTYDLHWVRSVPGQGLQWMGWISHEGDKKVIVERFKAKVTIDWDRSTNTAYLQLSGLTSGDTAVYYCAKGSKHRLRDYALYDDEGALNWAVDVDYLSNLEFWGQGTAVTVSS VL: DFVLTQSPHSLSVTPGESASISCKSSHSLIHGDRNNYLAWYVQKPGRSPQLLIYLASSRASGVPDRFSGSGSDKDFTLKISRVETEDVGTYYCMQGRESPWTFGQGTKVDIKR | 0.087 |

Then there is this binder:
Please fill in: neutralization IC80 reported for MS-82 (antibody, V domains shown) VH: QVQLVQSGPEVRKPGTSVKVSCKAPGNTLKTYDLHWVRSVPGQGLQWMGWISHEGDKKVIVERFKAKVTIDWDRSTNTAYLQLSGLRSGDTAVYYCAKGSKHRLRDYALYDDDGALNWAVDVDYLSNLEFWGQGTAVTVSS VL: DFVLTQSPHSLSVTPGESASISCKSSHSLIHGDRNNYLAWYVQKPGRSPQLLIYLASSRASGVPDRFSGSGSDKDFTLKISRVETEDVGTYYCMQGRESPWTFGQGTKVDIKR = 0.051
